tested.target: T1, mouse LAMA4 in mouse tissue (mouse, UniProt P97927 25-1816)
T1 construct: Native protein in tissue sections, there part of laminin trimers; also called LAMA4-positive mouse tissue; LAMA4-positive mouse brain vasculature
T1 sequence (P97927 25-1816 limits assumed): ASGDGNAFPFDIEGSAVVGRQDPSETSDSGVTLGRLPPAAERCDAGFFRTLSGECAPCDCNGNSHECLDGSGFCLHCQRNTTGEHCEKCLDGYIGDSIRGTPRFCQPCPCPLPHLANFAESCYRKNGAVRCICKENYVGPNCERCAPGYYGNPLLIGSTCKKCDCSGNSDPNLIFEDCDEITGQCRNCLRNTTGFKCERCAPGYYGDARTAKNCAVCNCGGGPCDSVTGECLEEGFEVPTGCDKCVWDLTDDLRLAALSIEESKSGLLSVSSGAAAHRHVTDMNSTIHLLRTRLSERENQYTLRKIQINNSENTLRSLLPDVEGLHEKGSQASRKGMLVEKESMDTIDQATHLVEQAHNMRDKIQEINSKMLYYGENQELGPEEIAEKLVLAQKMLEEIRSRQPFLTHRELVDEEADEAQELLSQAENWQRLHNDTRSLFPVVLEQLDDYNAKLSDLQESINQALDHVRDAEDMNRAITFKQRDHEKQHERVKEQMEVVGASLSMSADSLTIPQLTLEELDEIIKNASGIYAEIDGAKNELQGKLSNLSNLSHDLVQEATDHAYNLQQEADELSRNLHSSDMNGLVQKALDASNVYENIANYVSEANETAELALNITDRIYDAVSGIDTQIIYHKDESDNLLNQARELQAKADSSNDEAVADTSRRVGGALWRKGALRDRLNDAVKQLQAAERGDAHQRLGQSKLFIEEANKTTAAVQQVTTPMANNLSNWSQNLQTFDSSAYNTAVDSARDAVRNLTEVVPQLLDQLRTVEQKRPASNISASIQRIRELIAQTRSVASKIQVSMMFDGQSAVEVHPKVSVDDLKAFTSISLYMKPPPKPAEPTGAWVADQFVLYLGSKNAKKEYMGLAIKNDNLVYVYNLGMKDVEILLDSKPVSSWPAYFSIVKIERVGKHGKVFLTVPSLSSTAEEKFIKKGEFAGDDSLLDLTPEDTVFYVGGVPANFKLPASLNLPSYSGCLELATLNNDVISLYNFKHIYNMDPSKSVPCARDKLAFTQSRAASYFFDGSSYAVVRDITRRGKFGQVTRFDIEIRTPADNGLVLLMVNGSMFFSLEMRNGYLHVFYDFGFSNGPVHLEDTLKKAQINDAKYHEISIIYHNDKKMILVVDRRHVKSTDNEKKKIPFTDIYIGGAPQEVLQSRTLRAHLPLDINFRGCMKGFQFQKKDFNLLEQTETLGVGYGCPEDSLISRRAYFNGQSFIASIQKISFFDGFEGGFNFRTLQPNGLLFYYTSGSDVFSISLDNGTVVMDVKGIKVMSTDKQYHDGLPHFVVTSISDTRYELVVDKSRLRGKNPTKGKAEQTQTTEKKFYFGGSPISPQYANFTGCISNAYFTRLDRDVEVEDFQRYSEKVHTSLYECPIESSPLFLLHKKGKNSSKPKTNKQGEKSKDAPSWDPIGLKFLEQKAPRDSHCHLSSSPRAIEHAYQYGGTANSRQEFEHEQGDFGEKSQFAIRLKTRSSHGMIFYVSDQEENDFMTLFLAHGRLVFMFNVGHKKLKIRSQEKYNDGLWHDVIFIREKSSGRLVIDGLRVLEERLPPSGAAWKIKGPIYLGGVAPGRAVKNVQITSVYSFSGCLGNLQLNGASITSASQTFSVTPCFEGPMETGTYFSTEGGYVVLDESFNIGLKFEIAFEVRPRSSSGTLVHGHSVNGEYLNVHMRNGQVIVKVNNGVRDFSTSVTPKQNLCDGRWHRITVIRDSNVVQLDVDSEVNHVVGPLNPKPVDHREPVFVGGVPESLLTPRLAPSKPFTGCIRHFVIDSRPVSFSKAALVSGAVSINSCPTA
experiment.notes: staining of WT versus LAMA4.KO mouse brain cryosections, anti-human-594 secondary
metric.name: binding result

[[record]]
binder = "humanized 19C12 antibody H2L3 (antibody, V domains shown, Intact humanized IgG (human Fc); also called VHv2/VLv3; Hu19C12 H2L3) VH: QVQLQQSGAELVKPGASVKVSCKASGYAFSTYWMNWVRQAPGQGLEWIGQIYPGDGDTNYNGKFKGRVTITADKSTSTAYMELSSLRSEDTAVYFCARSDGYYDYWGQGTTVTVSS VL: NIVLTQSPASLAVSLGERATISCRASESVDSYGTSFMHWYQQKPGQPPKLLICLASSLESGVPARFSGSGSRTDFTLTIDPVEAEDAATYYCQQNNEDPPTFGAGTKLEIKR"
result = "binds"

[[record]]
binder = "humanized 19C12 antibody H3L6 (antibody, V domains shown, Intact humanized IgG (human Fc); also called VHv3/VLv6) VH: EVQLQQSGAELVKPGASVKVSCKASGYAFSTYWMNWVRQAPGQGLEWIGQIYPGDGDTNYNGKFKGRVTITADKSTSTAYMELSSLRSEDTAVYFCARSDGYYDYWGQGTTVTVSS VL: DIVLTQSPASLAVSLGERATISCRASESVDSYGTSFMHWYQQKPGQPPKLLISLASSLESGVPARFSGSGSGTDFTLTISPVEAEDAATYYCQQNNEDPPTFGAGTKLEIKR"
result = "binds"

[[record]]
binder = "humanized 19C12 antibody H2L6 (antibody, V domains shown, Intact humanized IgG (human Fc); also called VHv2/VLv6) VH: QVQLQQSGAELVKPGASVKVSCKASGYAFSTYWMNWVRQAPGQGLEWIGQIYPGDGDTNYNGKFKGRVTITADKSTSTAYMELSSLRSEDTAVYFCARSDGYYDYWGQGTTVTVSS VL: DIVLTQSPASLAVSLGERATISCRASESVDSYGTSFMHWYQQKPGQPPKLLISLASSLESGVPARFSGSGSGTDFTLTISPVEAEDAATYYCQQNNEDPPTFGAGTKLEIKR"
result = "binds"

